B1: mRNA-splicing (parent)
chain: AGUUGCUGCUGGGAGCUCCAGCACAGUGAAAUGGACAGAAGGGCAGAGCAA

- Variants of: B1
- experimentalProtocol: exon inclusion enrichment index; higher = more inclusion; WT1 exon 5 minigene, HEK293
We use 2 as the dividing line for exon inclusion enrichment index: on or above the line is Yes, below is No.

AGUUGACGACGGGAGCUCCAGCACACAGAAAUGGACAGAAGGGCAGAGCAA	Yes

Please indicate if the recorded exon inclusion enrichment index for "AGUUUCCUUUGGGAGCUCCAGCACAGUGAAAUGGACAGAAGGGCAGAGCAA" meets or exceeds 2.
No

Please indicate if the recorded exon inclusion enrichment index for "AGUUCUUCUCGGGAGCUCCAGCACAGUGCGAUGGACAGAAGGGCAGAGCAA" meets or exceeds 2.
Yes

Please indicate if the recorded exon inclusion enrichment index for "AGUUACCACCCCGAGCUCCAGCACAGUGAAAUGGACAGAAGGGCAGAGCAA" meets or exceeds 2.
No

Please indicate if the recorded exon inclusion enrichment index for "AGUUCACACAGGGAGCUCCAGCACAGGUAAAUGGACAGAAGGGCAGAGCAA" meets or exceeds 2.
No

Please indicate if the recorded exon inclusion enrichment index for "AGUUCGCGCCGGGAGCUCCAGCACAGUGAAAUGGACAGGAGGGCAGAGCAA" meets or exceeds 2.
Yes

Please indicate if the recorded exon inclusion enrichment index for "AGUUCGCGCCGGGACAUCCAGCACAGUGAAAUGGACAGAAGGGCAGAGCAA" meets or exceeds 2.
Yes

Please indicate if the recorded exon inclusion enrichment index for "AGUUCACACAGGGAGCUCCAGCAGCGUGAAAUGGACAGAAGGGCAGAGCAA" meets or exceeds 2.
No
